# System: NSC
# procedure-text: Cytotoxicity against human NSC cells assessed as reduction in cell viability at 1 to 20 uM after 24 hrs by MTT assay relative to control
# Format: cell-based
value-kind: Efficacy (%)
State just the number; it will be interpreted in %.

Known Efficacy results, listed for orientation:
| chemical-structure | Efficacy, % |
| --- | --- |
| FC(F)(F)c1ccc2c(c1)N(CCCCN1CCC(N3CCCC3)CC1)c1ccccc1S2 | 45 |
| FC(F)(F)c1ccc2c(c1)N(CCCCN1CCC(N3CCCCC3)CC1)c1ccccc1S2 | 43 |
| CN1CCN(CCCN2c3ccccc3Sc3ccc(C(F)(F)F)cc32)CC1 | 21 |

Now, please, on to the next compound.
Which Efficacy value belongs to "FC(F)(F)c1ccc2c(c1)N(CCCCN1CCC(N3CCOCC3)CC1)c1ccccc1S2" ?
21

----------
# procedure-text: Cytotoxicity against human GBL28 cells assessed as reduction in cell viability at 1 to 20 uM after 24 hrs by MTT assay relative to control
# Format: functional
value-kind: Efficacy
State the value, then name its unit.

| chemical-structure | Efficacy |
| --- | --- |
| FC(F)(F)c1ccc2c(c1)N(CCCCN1CCC(N3CCCC3)CC1)c1ccccc1S2 | 85% |
| CN1CCN(CCCN2c3ccccc3Sc3ccc(C(F)(F)F)cc32)CC1 | 85% |
| FC(F)(F)c1ccc2c(c1)N(CCCCN1CCC(N3CCOCC3)CC1)c1ccccc1S2 | 85% |

Now, please, on to the next compound.
Which Efficacy value belongs to "FC(F)(F)c1ccc2c(c1)N(CCCCN1CCC(N3CCCCC3)CC1)c1ccccc1S2" ?
85%
